Could you please report measured protein stability index for the items listed next?
- Protocol: protein stability index of a GFP-peptide fusion (GPS, HEK-293T) (PSI 1-6); higher = more stable;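 further: 24-mer peptide tiles fused after GFP, lentivirally expressed, FACS-sorted into six equal bins by GFP/DsRed ratio, decoded by Illumina sequencing, PSI is the read-weighted mean bin number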
- Details: treatment: DMSO; c terminus: native
No unit in the answer, please; the number alone is enough.

protein stability index reading for YKVKERLGTLKNPPKKKMKLMSG [LCOR] : 2.51

protein stability index reading for STMLGVFREDPKTREEFLTLIRS [GCH1] : 2.38

protein stability index reading for GEDRAGPQSPSPGAPPAAKPARG [TSPAN10] : 5.32

protein stability index reading for GVKLEGKVPMHKLFLEMLEAMMD [ESRRA] : 2.58

protein stability index reading for FGGAAAVAILAVAIGVALALRKK [BCL2L13] : 2.99

protein stability index reading for FRNAASTLTERPCYNRRASKLTY [ANKRD40] : 3.26

protein stability index reading for DTRLGQVSALPLPPAMKRYLLYQ [SPSB2] : 2.4

protein stability index reading for IDRQKCMAHRTRYPTILQLAGYQ [TEKT4] : 2.26

protein stability index reading for ELDYLMDVLVGTQALERPPGPGR [SERTAD1] : 2.23

protein stability index reading for MALEPNTTFLRKSLKAALKHLGP [FANCE] : 2.48

protein stability index reading for GQRQPPPSEPTQGPEIVPRGAGP [DNAJC4] : 5.28

protein stability index reading for PKAQLSGYAVEATRNQSQLQRFL [FBF1] : 4.13

---

- Protocol: protein stability index of a GFP-peptide fusion (GPS, HEK-293T) (PSI 1-6); higher = more stable
- Details: treatment: MLN4924 1 uM, 8 h; c terminus: a fixed tail appended
Could you please report measured protein stability index for the items listed next?

protein stability index reading for GGTLAEFIQKRCNSLLEEETILHF [NEK8] : 1.99

protein stability index reading for AAAYGHALEQYEGESWRESARYLE [P3H4] : 4.21

protein stability index reading for INGLRRVLDELTLARADLEMQIEN [KRT17] : 2.82

protein stability index reading for TVEKPGGKKVAVVLMDTQGAFDSQ [ATL3] : 4.16

protein stability index reading for STLKKALPTLSHIQEAQSAWKDDF [YJU2B] : 3.75

protein stability index reading for ILIELAMRGRIYLEPPTMRKKRLL [GOLPH3L] : 2.74

protein stability index reading for VEVGDKTHWAVGVCRDSVSRKGEL [TRIM39] : 3.2

protein stability index reading for VNMYVSIVFFGLISFDRYYKIVKP [P2RY14] : 3.06

protein stability index reading for QLIGSSNLFVMQVEMDIYTALKKW [GMCL1] : 2.28

protein stability index reading for LEEENKERAKREMVMYSITVAFWL [MFF] : 2.82

protein stability index reading for IRVQGREFRAHRAVLAASSPYFHD [ZBTB22] : 2.41

protein stability index reading for TQATETTTTRHKRTANPSKTIDLG [CLINT1] : 5.05

protein stability index reading for MNEVEKTMEYSMVGRTVLDMLIRE [RSPH3] : 2.16

protein stability index reading for DRDPNSLLISCAVSYRGAWWYRNC [TNXB] : 2.77

protein stability index reading for CVADNTNLYVFGGYNPDYDESGGP [KLHDC10] : 3.18

protein stability index reading for PNGLEAAYEFADRDEVRFFKGNKY [MMP1] : 3.83

protein stability index reading for SHPDTSYYIRYRGAVYADSGNFER [FEM1A] : 2.83

protein stability index reading for ILPKQSRKSMLDAGPDSWGSDAEQ [LCOR] : 4.55

protein stability index reading for GKSGLRVSCLGLGTWVTFGGQITD [KCNAB2] : 2.04

protein stability index reading for RGKRGYSRGLHAWEISWPLEQRGT [SPSB2] : 3.03

protein stability index reading for VLKAHNEYRQKHGVPPLKLCKNLN [GLIPR2] : 3.33

protein stability index reading for TPQEPWPGPTAPSPTSRPPWAVDP [PDLIM7] : 4.28

protein stability index reading for FIQKRCNSLLEEETILHFFVQILL [NEK8] : 2.28

protein stability index reading for LPTLSHIQEAQSAWKDDFALNSML [YJU2B] : 3.04

protein stability index reading for EILYPALPTDGSTGVELAPRSAEP [PCDHGA10] : 4.85

protein stability index reading for LLLYRIRKDVGCNRFEVTLEKSNK [VPS39] : 2.14

---

Could you please report measured protein stability index for the items listed next?
- Protocol: protein stability index of a GFP-peptide fusion (GPS, HEK-293T) (PSI 1-6); higher = more stable
- Details: treatment: DMSO; c terminus: a fixed tail appended
No unit in the answer, please; the number alone is enough.

protein stability index reading for SLTLEDVAVDFTWEEWQFLSPAQK [ZNF649] : 3.83

protein stability index reading for LKKEPGHPWKWSNGKEFNNWFNVT [CD69] : 2.14

protein stability index reading for SKLDTTKALNLLPANTQINDIRIF [VPS39] : 2.55

protein stability index reading for SAESSGCNSHMPYGYAAQARARER [KCNA4] : 4.43

protein stability index reading for KGALQKKPLYVAFSFMYILVGLTV [KCNK9] : 3.46

protein stability index reading for FRNPMMSKLRNYRKDLAKLHREVR [VTI1B] : 2.37

protein stability index reading for KVPSEAPSPMPTHRSYLGPGSTSP [SLC6A17] : 4.66

protein stability index reading for TRLQDCYVDSPALTNIWMARTCAK [C22orf31] : 2.47

protein stability index reading for DVGENLTVPDEFTVEERQTGMWWR [SLC25A25] : 4.18

protein stability index reading for KSQIMSLSHSPQEDWVLLGMANGQ [TLE6] : 3.15

protein stability index reading for PKKEANQAPKSKSGSRPRKPPPRK [LRRC59] : 4.92

protein stability index reading for RYFSAWAEDDHMLIQNEYRNGGSL [WEE1] : 2.67

protein stability index reading for LDGLIQQCGETMKETVNVKTVCGY [GMCL1] : 3.1

protein stability index reading for LGIPKNPWLWSEQQVCQWLLWATN [ETS2] : 2.29

protein stability index reading for DSTWLLLRRIRAESGTKGLFAGFL [SLC25A39] : 2.63

protein stability index reading for ESTFKNTEISFILGQEFDEVTADD [FABP4] : 4.74

protein stability index reading for ILAVSFAPLVQPSKNDNGKPDSVG [PCMTD1] : 2.98

protein stability index reading for NTNVLSRDLIPPHVNFSHLTTKDY [SLC6A17] : 3.49

protein stability index reading for PIFMRKDTKMSFQWRIRNLPYPKD [DPCD] : 2.27

protein stability index reading for TCPSSSTASSISSSGGSSGSSSDN [DYRK1B] : 5.35

protein stability index reading for AKSLSFRKGELVTASKAIIEKEYQ [ADD1] : 3.71

protein stability index reading for TIKKRLENNYYWSASECMQDFNTM [BRD3] : 2.08

protein stability index reading for ESFTVHFLPLNSAQTLHHKSCYNG [DNAAF3] : 2.4

protein stability index reading for KLFDVPSLNGVYPRMNEVYTRLGE [CEP70] : 2.65

protein stability index reading for FLFVLARVPAGIFKHTLSISRALL [MFSD9] : 3.29

protein stability index reading for WLDPGHTAVAQAPPAVASSSLFDL [SERTAD1] : 3.33

protein stability index reading for LCKIGSERSLVLDRLASNVAKRKS [IKZF1] : 3.83

protein stability index reading for PREALSRLQELCHGWLRPEMRTKE [ZNF263] : 3.31

protein stability index reading for RGDGGIYIGSIMKGGAVAADGRIE [DVL3] : 3.65

protein stability index reading for HGASPGLRDGGGLTPLELLLRQLG [ANKRD9] : 2.66

protein stability index reading for LPPIPHVFSAGTGSAILPHFHHAF [PLAGL1] : 2.15

protein stability index reading for FASLRPSEPFLTPYLLGPDKNLTE [SLC19A2] : 2.59

protein stability index reading for QARLLNPSATRAKPGPQDTVERPF [NOP53] : 4.78

protein stability index reading for EGGWWKAISLSTGRESYIPGICVA [SLA] : 2.03

protein stability index reading for TVAAETRAVIAWMEKIPFVLGGNL [CPXM2] : 2.56

protein stability index reading for RPLLQYVQDMGQEDMLLPLAWRIV [CCNC] : 2.44

protein stability index reading for ELSRQVRSSVELELERCRQQAGLL [PPEF2] : 3.23

protein stability index reading for RRHLQFWKSHLKKVQKPLLQAPFL [RHOBTB1] : 2.14

protein stability index reading for LTNSEYRSEQSVKLRRQVIQVVLN [ZER1] : 2.51

protein stability index reading for SAGRSMPEASDQEEHLSPLDFLHS [RNF180] : 5.07

protein stability index reading for KAKHFKCHICHKKLYTGPGLAIHC [ZNF207] : 2.33

protein stability index reading for SVPASDPRSCSSGPAGPYLLSKKG [PLEKHN1] : 4.65

protein stability index reading for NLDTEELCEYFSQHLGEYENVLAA [NECAB1] : 2.83

protein stability index reading for LSYVMSGYRCFVCPVEYNNDTNSF [CDS2] : 2.78

protein stability index reading for ADKKRSGKKKISKADIGAPSGFKH [WAS] : 4.63

protein stability index reading for VWVLMDEDVRIFFYQSPYDSEQVP [NCF4] : 2.3

protein stability index reading for KVVQSLLNHGASVNNTTLTNSTPL [FEM1C] : 2.77

protein stability index reading for TQATETTTTRHKRTANPSKTIDLG [CLINT1] : 4.88

protein stability index reading for CEGRRTRFRSCNTEDCPTGSALTF [ADAMTS4] : 3.42

protein stability index reading for AEQEPTRKLFEVESVTHHDYRMEL [SPAG8] : 4.16

protein stability index reading for PPHYFFTYRIRIEMSKDALPEKAC [FBXO3] : 2.47

protein stability index reading for LAGQKDELQLSDLLKQGYNKTLLR [PKD2L1] : 3.24

protein stability index reading for IFSFGQLPLALVTWVPMFLSTLLA [SOAT2] : 2.9

All values here come from the supplement of paper PMC10567573.
